Ref: patent US8980848B2

QUANTITY MEASURED: melting point

Ask: Record request: melting point value, item O=c1cc(-c2ccc(OCCOCCN(CCOCCOc3ccc(-c4cc(=O)c5ccccc5o4)cc3)Cc3ccc4c(c3)OCO4)cc2)oc2ccccc12 [Compound 42e]
Result: 69 to 70 °C

Ask: Record request: melting point value, item CN(C)c1cccc2c(S(=O)(=O)N(CCOCCOc3ccc(-c4cc(=O)c5ccccc5o4)cc3)CCOCCOc3ccc(-c4cc(=O)c5ccccc5o4)cc3)cccc12 [Compound 25b]
Result: 72 to 74 °C

Ask: Record request: melting point value, item O=c1cc(-c2ccc(OCCOCCN(CCOCCOc3ccc(-c4cc(=O)c5ccccc5o4)cc3)Cc3cccc(F)c3)cc2)oc2ccccc12 [Compound 37]
Result: 91 to 93 °C

Ask: Record request: melting point value, item O=C(c1ccccc1)c1ccc(CN(CCOCCOc2ccc(-c3cc(=O)c4ccccc4o3)cc2)CCOCCOc2ccc(-c3cc(=O)c4ccccc4o3)cc2)cc1 [Compound 61]
Result: 71 to 72 °C

====

- MEASURED TARGET: Pgp (LCC6MDR cells) (Homo sapiens)
- Sequence (P08183 whole entry): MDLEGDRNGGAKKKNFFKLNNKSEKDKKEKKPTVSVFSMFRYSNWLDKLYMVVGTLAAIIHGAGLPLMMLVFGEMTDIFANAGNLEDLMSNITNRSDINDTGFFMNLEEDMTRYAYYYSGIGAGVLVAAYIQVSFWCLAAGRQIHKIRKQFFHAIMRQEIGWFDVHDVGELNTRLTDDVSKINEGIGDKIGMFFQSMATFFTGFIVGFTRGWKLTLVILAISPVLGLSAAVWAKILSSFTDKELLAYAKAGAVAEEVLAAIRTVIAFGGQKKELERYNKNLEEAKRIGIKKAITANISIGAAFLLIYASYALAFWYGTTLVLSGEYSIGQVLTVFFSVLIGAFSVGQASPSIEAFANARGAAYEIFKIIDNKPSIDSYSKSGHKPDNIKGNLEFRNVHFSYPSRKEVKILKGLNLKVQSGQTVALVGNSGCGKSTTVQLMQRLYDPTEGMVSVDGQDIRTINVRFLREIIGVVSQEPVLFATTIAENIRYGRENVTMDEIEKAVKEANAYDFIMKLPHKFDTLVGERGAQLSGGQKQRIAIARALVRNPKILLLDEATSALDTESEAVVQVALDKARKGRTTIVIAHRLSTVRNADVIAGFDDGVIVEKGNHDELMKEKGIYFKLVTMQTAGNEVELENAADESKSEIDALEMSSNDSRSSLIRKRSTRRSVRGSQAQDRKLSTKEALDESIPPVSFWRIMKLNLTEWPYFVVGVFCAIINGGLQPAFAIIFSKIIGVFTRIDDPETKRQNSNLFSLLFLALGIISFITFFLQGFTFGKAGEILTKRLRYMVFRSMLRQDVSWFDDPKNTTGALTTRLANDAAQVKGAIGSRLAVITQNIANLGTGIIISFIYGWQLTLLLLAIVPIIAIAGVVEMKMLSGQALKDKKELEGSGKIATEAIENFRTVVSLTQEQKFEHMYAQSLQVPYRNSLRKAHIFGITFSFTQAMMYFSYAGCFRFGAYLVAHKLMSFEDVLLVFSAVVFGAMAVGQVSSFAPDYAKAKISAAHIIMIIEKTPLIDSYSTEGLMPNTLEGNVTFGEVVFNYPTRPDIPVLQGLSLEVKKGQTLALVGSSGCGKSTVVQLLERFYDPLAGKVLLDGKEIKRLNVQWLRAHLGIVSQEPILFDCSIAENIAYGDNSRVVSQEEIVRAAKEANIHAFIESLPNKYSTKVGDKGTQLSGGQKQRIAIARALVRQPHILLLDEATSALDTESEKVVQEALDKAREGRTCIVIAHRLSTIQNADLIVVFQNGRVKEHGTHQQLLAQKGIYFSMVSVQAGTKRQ
- METHOD: Cell proliferation assay: Pgp-modulating activity, reversal of anticancer drug resistance in LCC6MDR cells
- STATED CONDITIONS: EC50 of compounds for reversing anticancer drug resistance (nM), Daunorubicin, LCC6MDR
A collection of compounds and their measured EC50
Just the number plus its unit, please.

For orientation, consider the following solved cases.
# COMPOUND, QUANTITY MEASURED, ASSAY VALUE
records = [
    ("COc1ccc(CN(CCOCCOc2ccc(-c3cc(=O)c4ccccc4o3)cc2)CCOCCOc2ccc(-c3cc(=O)c4ccccc4o3)cc2)cc1 [Compound 42a]", "EC50", "61 nM"),
    ("O=c1cc(-c2ccc(OCCOCCN(CCOCCOc3ccc(-c4cc(=O)c5ccccc5o4)cc3)Cc3ccccc3)cc2)oc2ccccc12", "EC50", "95 nM"),
]

From here, focus on the item given below.
Ask: Record request: EC50 value, item O=c1cc(-c2ccc(OCCOCCN(CCOCCOc3ccc(-c4cc(=O)c5ccccc5o4)cc3)Cc3ccc(-c4ccccc4)cc3)cc2)oc2ccccc12
Result: 76 nM

====

A collection of compounds and their measured EC50
- MEASURED TARGET: Pgp (LCC6MDR cells) (Homo sapiens)
- METHOD: Cell proliferation assay: Pgp-modulating activity, reversal of anticancer drug resistance in LCC6MDR cells
- STATED CONDITIONS: EC50 of compounds for reversing anticancer drug resistance (nM), Mitoxantrone, LCC6MDR
Write the answer as a number in nM, unit excluded.

# COMPOUND, ASSAY VALUE
records = [
    ("O=c1cc(-c2ccc(OCCOCCN(CCOCCOc3ccc(-c4cc(=O)c5ccccc5o4)cc3)Cc3ccccc3)cc2)oc2ccccc12", 90),
]

Ask: Record request: EC50 value, item O=c1cc(-c2ccc(OCCOCCN(CCOCCOc3ccc(-c4cc(=O)c5ccccc5o4)cc3)Cc3ccc(-c4ccccc4)cc3)cc2)oc2ccccc12
Result: 65

Ask: Record request: EC50 value, item COc1ccc(CN(CCOCCOc2ccc(-c3cc(=O)c4ccccc4o3)cc2)CCOCCOc2ccc(-c3cc(=O)c4ccccc4o3)cc2)cc1 [Compound 42a]
Result: 96

====

- MEASURED TARGET: Pgp (LCC6MDR cells) (Homo sapiens)
- METHOD: Cell proliferation assay: Pgp-modulating activity, reversal of anticancer drug resistance in LCC6MDR cells
- STATED CONDITIONS: RF = (IC50 without modulator)/(IC50 with 0.5 μM modulator), paclitaxel, LCC6MDR
QUANTITY MEASURED: RF (Relative Fold), cpd at 0.5 μM

For orientation, consider the following solved cases.
# MOLECULE, RF (Relative Fold), cpd at 0.5 μM
measured = [
    ("CCOC(=O)CCN(CCOCCOc1ccc(-c2cc(=O)c3ccccc3o2)cc1)CCOCCOc1ccc(-c2cc(=O)c3ccccc3o2)cc1", "(5.3)"),
    ("O=c1cc(-c2ccc(OCCOCCN(CCOCCOc3ccc(-c4cc(=O)c5ccccc5o4)cc3)Cc3ccncc3)cc2)oc2ccccc12", "(6.9)"),
    ("COc1cc(-c2cc(=O)c3ccccc3o2)ccc1OCCOCCN(CCOCCOc1ccc(-c2cc(=O)c3ccccc3o2)cc1OC)C(=O)OC(C)(C)C [Compound 16b]", "(8.7)"),
    ("O=C1c2ccccc2C(=O)N1CCN(CCOCCOc1ccc(-c2cc(=O)c3ccccc3o2)cc1)CCOCCOc1ccc(-c2cc(=O)c3ccccc3o2)cc1 [Compound 23c]", "(9.6)"),
    ("O=C(c1ccccc1)c1ccc(CN(CCOCCOc2ccc(-c3cc(=O)c4ccccc4o3)cc2)CCOCCOc2ccc(-c3cc(=O)c4ccccc4o3)cc2)cc1", "(1.9)"),
]

Ask: Record request: RF (Relative Fold), cpd at 0.5 μM value, item O=c1cc(-c2ccc(OCCOCCN(CCOCCOc3ccc(-c4cc(=O)c5ccccc5o4)cc3)Cc3ccnc(Br)c3)cc2)oc2ccccc12 [Compound 64b]
Result: (8.4)

Ask: Record request: RF (Relative Fold), cpd at 0.5 μM value, item O=C(O)CCC(=O)N(CCOCCOc1ccc(-c2cc(=O)c3ccccc3o2)cc1)CCOCCOc1ccc(-c2cc(=O)c3ccccc3o2)cc1 [Compound 23a]
Result: (1.1)
